Data provenance: the supplement of paper PMC4862054

- Test system: HCC1143
- method-summary: normalised response (% of control), CellTox Green; higher = less cell death (100 = DMSO, 0 = benzethonium chloride kill control)
- measurement-conditions: incubation time: 72 h
assay-endpoint: normalised response
Record the result as number plus unit.

Find the measured normalised response of CCN(CC)CCNC(=O)c1c(C)[nH]c(/C=C2\C(=O)Nc3ccc(F)cc32)c1C [Sunitinib] (100 nM) and report it.
107%

Find the measured normalised response of CNC(=O)c1cc(Oc2ccc(NC(=O)Nc3ccc(Cl)c(C(F)(F)F)c3)cc2)ccn1 [Sorafenib] (10 nM) and report it.
95.9%

Find the measured normalised response of CO[C@@H](C(=O)N1Cc2[nH]nc(NC(=O)c3ccc(N4CCN(C)CC4)cc3)c2C1)c1ccccc1 [Danusertib] (10000 nM) and report it.
127%
